experiment: Multiple-dose ocular bio-distribution (twice daily for 5 days, tissues 1 h after last dose)
condition: New Zealand White, rabbit, retinal/choroidal tissue, treated study eye, topical, 35 µL, Cmean retinal tissue (RT), SE, multiple doses twice daily 5 days, 1 h ± 30 min after last dose, study eye, mean ± SD
readout-name: concentration at 1 h after last dose (ng/g)
# unit: ng/g | format: bare number

Input: Name the reported concentration at 1 h after last dose value associated with the compound "CCOc1nc2cccc(C(=O)O)c2n1Cc1ccc(-c2ccccc2-c2nnn[nH]2)cc1"
Output: 36

---

experiment: Single-dose ocular bio-distribution and pharmacokinetics of topical γCD based eye drops (LC-MS/MS of ocular tissues)
condition: New Zealand White, rabbit, aqueous humor, untreated control eye, topical or ocular, 35 µL, Cmax CE, aqueous humor (AH), single dose, control eye; also published separately [20]
readout-name: Cmax

Input: Bench note: what Cmax did "CCOc1nc2cccc(C(=O)O)c2n1Cc1ccc(-c2ccccc2-c2nnn[nH]2)cc1" show?
Output: < 2 ng/g
